From: PubChem BioAssay AID1918940

# Test system: NCI-H211 complex spheroid viability
# assay.name: Anticancer human tumor NCI-H211 cell line growth inhibition [LSD1];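 note: luminescent viability read after seven days of drug exposure; 100% = DMSO vehicle control viability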
# condition.details: second compound 3.16 µM; first compound 0.949 µM; hits give low values
# Description: Multicellular complex tumor spheroid response to LSD1 Inhibitor Iadademstat in combination with a variety of drugs and investigational agents in selected tumor cell lines The current study was undertaken to assess response to LSD1 inhibitors in combination with standard-of-care drugs and investigational agents in solid tumor complex spheroid models as well as in the K-562 leukemia. […] Compounds. […] If the clinical Cmax for an agent had not been determined, the highest concentration tested was 10 microM. […]
Threshold 1%. viability, T/C below it: 1. viability, T/C at it or above: -1.

**Query** Is viability, T/C strictly under 1% for the entry NS(=O)(=O)OCC1CC(n2ccc3c(NC4CCc5ccccc54)ncnc32)CC1O (configuration not stated) + NC1CCC(NC2CC2c2ccccc2)CC1 ?
**Result** 1

**Query** Could you please tell me whether viability, T/C recorded for Nc1ccccc1NC(=O)c1ccc(CNC(=O)OCc2cccnc2)cc1 + NC1CC1c1ccc(-c2cccc(O)c2)cc1 is less than 1%?
**Result** -1

**Query** Is 1% strictly greater than the molecule's reported viability, T/C? molecule: COc1cc(C2c3cc4c(cc3C(OC3OC5COC(C)OC5C(O)C3O)C3COC(=O)C23)OCO4)cc(OC)c1O (configuration not stated) + NC1CCC(NC2CC2c2ccccc2)CC1
**Result** -1

**Query** Please indicate whether the reported viability, T/C of O=C(C=Cc1cccc(S(=O)(=O)Nc2ccccc2)c1)NO + NC1CCC(NC2CC2c2ccccc2)CC1 is strictly below 1%.
**Result** 1

**Query** Given the entry NS(=O)(=O)OCC1CC(n2ccc3c(NC4CCc5ccccc54)ncnc32)CC1O (configuration not stated) + NC1CC1c1ccc(-c2cccc(O)c2)cc1 , would its reported viability, T/C be below 1%?
**Result** 1

**Query** Given the entry Nc1ccccc1NC(=O)c1ccc(CNC(=O)OCc2cccnc2)cc1 + NC1CCC(NC2CC2c2ccccc2)CC1 , would its reported viability, T/C be below 1%?
**Result** 1

**Query** Identify whether the molecule CCN(c1cc(-c2ccc(CN3CCOCC3)cc2)cc(C(=O)NCc2c(C)cc(C)[nH]c2=O)c1C)C1CCOCC1 + NC1CC1c1ccc(-c2cccc(O)c2)cc1 records viability, T/C below 1%.
**Result** -1

###

# Test system: NCI-H211 complex spheroid viability
# assay.name: Anticancer human tumor NCI-H211 cell line growth inhibition [LSD1];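 note: luminescent viability read after seven days of drug exposure; 100% = DMSO vehicle control viability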
# condition.details: second compound 0.316 µM; first compound 0.00949 µM; hits give low values
Define the label as 1 (yes) when viability, T/C is strictly less than 20% and as 0 (no) in all remaining cases.

**Query** Hello, is viability, T/C of the following molecule strictly smaller than 20%? Nc1ccccc1NC(=O)c1ccc(CNC(=O)OCc2cccnc2)cc1 + NC1CCC(NC2CC2c2ccccc2)CC1
**Result** 0 (no)

**Query** viability, T/C strictly < 20% for this molecule? COc1cc(C2c3cc4c(cc3C(OC3OC5COC(C)OC5C(O)C3O)C3COC(=O)C23)OCO4)cc(OC)c1O (configuration not stated) + NC1CCC(NC2CC2c2ccccc2)CC1
**Result** 0 (no)

**Query** I wonder whether Nc1ccn(C2OC(CO)C(O)C2(F)F)c(=O)n1 (configuration not stated) + NC1CCC(NC2CC2c2ccccc2)CC1 has viability, T/C below 20%. Can you tell?
**Result** 1 (yes)

**Query** # check: viability, T/C < 20% for CCc1c2c(nc3ccc(O)cc13)-c1cc3c(c(=O)n1C2)COC(=O)[C@]3(O)CC + NC1CCC(NC2CC2c2ccccc2)CC1
**Result** 1 (yes)

**Query** Given the entry NS(=O)(=O)OCC1CC(n2ccc3c(NC4CCc5ccccc54)ncnc32)CC1O (configuration not stated) + NC1CCC(NC2CC2c2ccccc2)CC1 , would its reported viability, T/C be below 20%?
**Result** 1 (yes)

**Query** Is the reported viability, T/C for O=C(C=Cc1cccc(S(=O)(=O)Nc2ccccc2)c1)NO + NC1CC1c1ccc(-c2cccc(O)c2)cc1 strictly below 20%?
**Result** 1 (yes)

###

# Test system: NCI-H211 complex spheroid viability
# assay.name: Anticancer human tumor NCI-H211 cell line growth inhibition [LSD1];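 note: luminescent viability read after seven days of drug exposure; 100% = DMSO vehicle control viability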
# condition.details: second compound 0.316 µM; first compound 0.00949 µM; hits give low values
Kindly supply the reported viability, T/C values for the records listed here.
Give just the number in %; leave the unit off.

**Query** Would you kindly share the measured viability, T/C for Nc1ncn(C2CC(O)C(CO)S2)c(=O)n1 (stereo not given) + NC1CC1c1ccc(-c2cccc(O)c2)cc1 ?
**Result** 8.03

**Query** Consider the compound shown here: CCc1c2c(nc3ccc(O)cc13)-c1cc3c(c(=O)n1C2)COC(=O)[C@]3(O)CC + NC1CC1c1ccc(-c2cccc(O)c2)cc1 What is its recorded viability, T/C?
**Result** 1.18

**Query** # get_value(readout='viability, T/C', item= Nc1ccccc1NC(=O)c1ccc(CNC(=O)OCc2cccnc2)cc1 + NC1CC1c1ccc(-c2cccc(O)c2)cc1 )
**Result** 46.8

**Query** Look up viability, T/C: CCN(c1cc(-c2ccc(CN3CCOCC3)cc2)cc(C(=O)NCc2c(C)cc(C)[nH]c2=O)c1C)C1CCOCC1 + NC1CC1c1ccc(-c2cccc(O)c2)cc1
**Result** 84

**Query** Sample Nc1ncn(C2CC(O)C(CO)S2)c(=O)n1 (stereo not given) + NC1CCC(NC2CC2c2ccccc2)CC1 — what was its viability, T/C?
**Result** 12.1

###

# System: NCI-H211 complex spheroid viability
# assay.name: Anticancer human tumor NCI-H211 cell line growth inhibition [LSD1]; active = viability on the fitted dose curve at most 10% of control; inactive = the rest;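 note: luminescent viability read after seven days of drug exposure; 100% = DMSO vehicle control viability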
# condition.details: second compound 3.16 µM; first compound 1 µM
The reply should name one outcome from Y (active), N (inactive)

**Query** Each compound tested received a call. Report the one for COc1cc(Nc2ncc3c(n2)-c2ccc(Cl)cc2C(c2c(F)cccc2OC)=NC3)ccc1C(=O)O + NC1CC1c1ccc(-c2cccc(O)c2)cc1 .
**Result** Y

**Query** // outcome(item) with item = CC(C)c1c(-c2ccccc2)nc2c(C#N)c[nH]n2c1=O + NC1CC1c1ccc(-c2cccc(O)c2)cc1
**Result** N

**Query** Name the outcome recorded for CC1COCCN1c1cc(-c2ccnn2C)c2ccnc(-c3ccn[nH]3)c2n1 (stereo not drawn) + NC1CC1c1ccc(-c2cccc(O)c2)cc1 in the assay.
**Result** Y

**Query** Give the logged outcome of this assay for the following compound: COc1cc(Nc2ncc3c(n2)-c2ccc(Cl)cc2C(c2c(F)cccc2OC)=NC3)ccc1C(=O)O + NC1CCC(NC2CC2c2ccccc2)CC1
**Result** Y

**Query** Please state the recorded outcome for this compound: CC1(C)CCC(CN2CCN(c3ccc(C(=O)NS(=O)(=O)c4ccc(NCC5CCOCC5)c([N+](=O)[O-])c4)c(Oc4cnc5[nH]ccc5c4)c3)CC2)=C(c2ccc(Cl)cc2)C1 + NC1CC1c1ccc(-c2cccc(O)c2)cc1
**Result** N

**Query** What did the test return for Nc1ncn(C2CC(O)C(CO)O2)c(=O)n1 (stereo not drawn) + NC1CC1c1ccc(-c2cccc(O)c2)cc1 ?
**Result** Y

**Query** Please let me know the test result on file for O=C(c1cc(Cc2n[nH]c(=O)c3ccccc23)ccc1F)N1CCN(C(=O)C2CC2)CC1 + NC1CCC(NC2CC2c2ccccc2)CC1 .
**Result** Y

**Query** What call does the record list for Nc1ncn(C2CC(O)C(CO)O2)c(=O)n1 (stereo not drawn) + NC1CCC(NC2CC2c2ccccc2)CC1 ?
**Result** Y

**Query** What classification did COc1ccc([C@@H](O)c2cc(-c3ncnc4cc(N5CCOCC5)ccc34)c(F)cc2Cl)nn1 + NC1CCC(NC2CC2c2ccccc2)CC1 end up with in this test?
**Result** N

**Query** Just curious, what result did CC1COCCN1c1cc(-c2ccnn2C)c2ccnc(-c3ccn[nH]3)c2n1 (stereo not drawn) + NC1CCC(NC2CC2c2ccccc2)CC1 get here?
**Result** Y

**Query** GET /call?item= CC(C)c1c(-c2ccccc2)nc2c(C#N)c[nH]n2c1=O + NC1CCC(NC2CC2c2ccccc2)CC1 returns the recorded outcome of this test.
**Result** N

**Query** Hello, I am checking results. What call was entered for CC1COCCN1c1cc(C2(S(C)(=N)=O)CC2)nc(-c2ccnc3[nH]ccc23)n1 (stereo not drawn) + NC1CCC(NC2CC2c2ccccc2)CC1 ?
**Result** N

**Query** Fill in: this test's call for COc1ccc([C@@H](O)c2cc(-c3ncnc4cc(N5CCOCC5)ccc34)c(F)cc2Cl)nn1 + NC1CC1c1ccc(-c2cccc(O)c2)cc1 is ___
**Result** N

**Query** Just curious, what result did O=C(c1cc(Cc2n[nH]c(=O)c3ccccc23)ccc1F)N1CCN(C(=O)C2CC2)CC1 + NC1CC1c1ccc(-c2cccc(O)c2)cc1 get here?
**Result** Y

**Query** What was the test verdict on O=C(C=Cn1cnc(-c2cc(C(F)(F)F)cc(C(F)(F)F)c2)n1)NNc1cnccn1 + NC1CCC(NC2CC2c2ccccc2)CC1 ?
**Result** Y

**Query** Which outcome was entered for the compound CC1(C)CCC(CN2CCN(c3ccc(C(=O)NS(=O)(=O)c4ccc(NCC5CCOCC5)c([N+](=O)[O-])c4)c(Oc4cnc5[nH]ccc5c4)c3)CC2)=C(c2ccc(Cl)cc2)C1 + NC1CCC(NC2CC2c2ccccc2)CC1 in this test?
**Result** N

**Query** Just curious, what result did O=C(C=Cn1cnc(-c2cc(C(F)(F)F)cc(C(F)(F)F)c2)n1)NNc1cnccn1 + NC1CC1c1ccc(-c2cccc(O)c2)cc1 get here?
**Result** Y

**Query** Assay result, entry CC1COCCN1c1cc(C2(S(C)(=N)=O)CC2)nc(-c2ccnc3[nH]ccc23)n1 (stereo not drawn) + NC1CC1c1ccc(-c2cccc(O)c2)cc1 — outcome?
**Result** N
